The reported numbers originate from the SangsterLogP compilation.

# experiment: method code SF-AS, from DOI: 10.1021/jm00266a011, PMID: 4583365
# maps each entry to its logP
measuredAttribute: logP

compound | assayResult
O=C(NC(CO)C(O)c1ccc([N+](=O)[O-])cc1)c1ccccc1 (configuration not stated) | 1.63
O=C(CI)N[C@H](CO)[C@H](O)c1ccc([N+](=O)[O-])cc1 | 1.03
N#Cc1ccc([C@@H](O)[C@@H](CO)NC(=O)C(Cl)Cl)cc1 | 1.29
CC(C)C(=O)N[C@H](CO)[C@H](O)c1ccc([N+](=O)[O-])cc1 | 0.88
O=C(NC(CO)C(O)c1ccc([N+](=O)[O-])cc1)C(Cl)(Cl)Cl (configuration not stated) | 1.97
O=C(N[C@@H](CO)[C@@H](O)c1ccc(I)cc1)C(Cl)Cl (relative stereo) | 2.22
O=C(CF)NC(CO)C(O)c1ccc([N+](=O)[O-])cc1 (configuration not stated) | 0.15
CCCC(=O)NC(CO)C(O)c1ccc([N+](=O)[O-])cc1 (configuration not stated) | 0.87
CCCCCCCCN(C)/N=N/c1nc[nH]c1C(N)=O | 3.22
O=C(NC(CO)C(O)c1ccc([N+](=O)[O-])cc1)C(F)(F)F (configuration not stated) | 1.07
CCC(CC)C(=O)N[C@H](CO)[C@H](O)c1ccc([N+](=O)[O-])cc1 | 1.71
O=C(N[C@H](CO)[C@H](O)c1ccc([N+](=O)[O-])cc1)C(F)F | 0.42
O=C(N[C@H](CO)[C@H](O)c1ccc([N+](=O)[O-])cc1)C(Br)Br | 1.36
O=C(N[C@H](CO)[C@H](O)c1ccc(Br)cc1)C(Cl)Cl | 1.87
O=C(NC(CO)C(O)c1ccccc1)C(Cl)Cl (configuration not stated) | 0.94
O=C(CCl)NC(CO)C(O)c1ccc([N+](=O)[O-])cc1 (configuration not stated) | 0.59
O=C(Cc1ccccc1)NC(CO)C(O)c1ccc([N+](=O)[O-])cc1 (configuration not stated) | 1.52
N#CC(C(=O)NC(CO)C(O)c1ccc([N+](=O)[O-])cc1)c1ccccc1 (configuration not stated) | 1.47
O=C(N[C@H](CO)[C@H](O)c1ccc(-c2ccccc2)cc1)C(Cl)Cl | 2.86
O=C(N[C@H](CO)[C@H](O)c1ccc([N+](=O)[O-])cc1)C(Br)(Br)Br | 2.17
CC(=O)NC(CO)C(O)c1ccc([N+](=O)[O-])cc1 (configuration not stated) | -0.03
CC(Cl)C(=O)NC(CO)C(O)c1ccc([N+](=O)[O-])cc1 (configuration not stated) | 0.98

---

# experiment: method code SF, from DOI: 10.1021/jm00266a011, PMID: 4583365
The following compounds are shown together with reported logP values.

compound | logP
CN(Cc1ccccc1)/N=N/c1nc[nH]c1C(N)=O | 1.54
N#CCC(=O)NC(CO)C(O)c1ccc([N+](=O)[O-])cc1 (configuration not stated) | -0.22
